# Assay system: TGFβ1 (Homo sapiens, UniProt P01137 P01137:279-390)
# Sequence (P01137 279-390, one chain of several): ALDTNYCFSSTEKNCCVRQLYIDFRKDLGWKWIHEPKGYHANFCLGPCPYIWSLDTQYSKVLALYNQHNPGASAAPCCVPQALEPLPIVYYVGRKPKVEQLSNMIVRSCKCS
# Method notes: cell_activity; full inhibition of TGFβ1 in mink lung epithelial cell proliferation assay
# Conditions: tags: recombinant human, R&D Systems; chain copies: 2
Measure name: Ki

QUERY: Would you mind telling me what Ki value was observed for GGGUGCCUUUUGCCUAGGUUGUGAUUUGUAACCUUCUGCCCA (ssRNA, 2'-F pyrimidines (inferred)) [CD70syn] ?
RESULT: ~74.6 nM

Source listed as patent US20030003461.
